Target: TAOK2 (Homo sapiens)
Sequence (Q9UL54 1-1235): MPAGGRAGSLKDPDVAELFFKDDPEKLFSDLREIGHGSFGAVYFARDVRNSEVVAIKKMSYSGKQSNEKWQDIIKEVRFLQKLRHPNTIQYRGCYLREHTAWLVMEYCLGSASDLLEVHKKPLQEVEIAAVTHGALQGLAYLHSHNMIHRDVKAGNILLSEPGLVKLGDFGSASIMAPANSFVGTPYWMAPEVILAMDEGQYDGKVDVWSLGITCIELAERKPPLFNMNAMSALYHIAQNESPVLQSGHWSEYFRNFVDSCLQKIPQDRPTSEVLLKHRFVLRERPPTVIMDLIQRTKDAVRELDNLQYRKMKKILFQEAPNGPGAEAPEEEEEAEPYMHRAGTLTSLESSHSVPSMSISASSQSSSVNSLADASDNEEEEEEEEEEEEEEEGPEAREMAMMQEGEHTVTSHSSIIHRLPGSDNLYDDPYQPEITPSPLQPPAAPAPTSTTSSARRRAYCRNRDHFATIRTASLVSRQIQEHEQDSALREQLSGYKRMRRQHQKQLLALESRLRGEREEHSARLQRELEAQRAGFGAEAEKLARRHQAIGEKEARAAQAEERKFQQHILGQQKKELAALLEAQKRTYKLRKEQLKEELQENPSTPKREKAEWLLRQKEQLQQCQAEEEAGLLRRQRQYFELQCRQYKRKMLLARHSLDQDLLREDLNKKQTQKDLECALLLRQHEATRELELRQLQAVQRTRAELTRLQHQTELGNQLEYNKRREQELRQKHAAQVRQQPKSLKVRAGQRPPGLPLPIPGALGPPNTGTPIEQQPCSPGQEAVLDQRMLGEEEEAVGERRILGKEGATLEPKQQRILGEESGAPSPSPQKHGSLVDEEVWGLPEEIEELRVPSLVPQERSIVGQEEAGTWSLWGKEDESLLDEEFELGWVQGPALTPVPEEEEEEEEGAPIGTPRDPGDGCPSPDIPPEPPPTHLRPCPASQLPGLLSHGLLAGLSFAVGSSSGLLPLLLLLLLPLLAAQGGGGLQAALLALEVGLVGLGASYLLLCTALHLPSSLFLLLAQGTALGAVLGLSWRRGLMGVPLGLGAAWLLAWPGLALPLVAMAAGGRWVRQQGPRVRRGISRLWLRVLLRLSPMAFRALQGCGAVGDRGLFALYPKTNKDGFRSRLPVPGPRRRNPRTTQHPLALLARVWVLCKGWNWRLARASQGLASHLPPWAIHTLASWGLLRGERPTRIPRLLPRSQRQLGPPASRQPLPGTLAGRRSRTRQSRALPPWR
pIC50: −log10 of the molar value.
Catalogue of pIC50 readings, one per entry.
observable: pIC50

COc1cc(N2CCC(N3CCN(C)CC3)CC2)ccc1Nc1ncc(Cl)c(Nc2ccccc2P(C)(C)=O)n1 [Brigatinib, reference compound]; 6.02
COc1cc(N2CCC3(CCN(C)CC3)CC2)ccc1Nc1ncc(Cl)c(Nc2ccccc2P(C)(C)=O)n1 [Iruplinalkib]; 5.82

====

biological target: MATE1 (Homo sapiens); assay: Uptake inhibitor investigation in HEK293 cells expressing transporter; conditions: HEK293 cells expressing MATE1, probe MPP, 10 μM
Sequence (Q96FL8 whole entry): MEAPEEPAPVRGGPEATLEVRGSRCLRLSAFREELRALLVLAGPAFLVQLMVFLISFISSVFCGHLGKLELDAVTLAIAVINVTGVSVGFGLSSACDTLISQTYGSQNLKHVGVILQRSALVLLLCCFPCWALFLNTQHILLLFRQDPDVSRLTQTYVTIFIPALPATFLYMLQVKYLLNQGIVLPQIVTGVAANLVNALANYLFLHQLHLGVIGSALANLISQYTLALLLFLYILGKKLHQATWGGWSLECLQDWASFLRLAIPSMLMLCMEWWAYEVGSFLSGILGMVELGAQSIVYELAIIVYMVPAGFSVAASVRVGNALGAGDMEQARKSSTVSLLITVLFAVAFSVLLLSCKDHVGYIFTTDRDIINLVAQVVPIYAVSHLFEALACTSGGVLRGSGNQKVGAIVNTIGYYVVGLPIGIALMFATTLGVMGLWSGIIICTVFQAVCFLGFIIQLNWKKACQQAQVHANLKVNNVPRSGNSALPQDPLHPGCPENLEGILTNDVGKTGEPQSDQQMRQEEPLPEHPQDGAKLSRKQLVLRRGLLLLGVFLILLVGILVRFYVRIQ
observable: inhibition at 2 μM

CCc1nc(N)nc(N)c1-c1ccc(Cl)cc1; 123%

====

target: MRP2 (Homo sapiens, UniProt Q92887); construct: host or cells: membrane vesicles ('Membrane capsule'), MRP2 versus NC control, with ATP or AMP; assay: MRP2 inhibitor investigation; type: in vitro ADME; details: probe CDCF 5 μM; MRP2; substrate CDCF 5 μM; inhibitor 3 μM; read-out: Inhibition rate
Sequence (Q92887 whole entry): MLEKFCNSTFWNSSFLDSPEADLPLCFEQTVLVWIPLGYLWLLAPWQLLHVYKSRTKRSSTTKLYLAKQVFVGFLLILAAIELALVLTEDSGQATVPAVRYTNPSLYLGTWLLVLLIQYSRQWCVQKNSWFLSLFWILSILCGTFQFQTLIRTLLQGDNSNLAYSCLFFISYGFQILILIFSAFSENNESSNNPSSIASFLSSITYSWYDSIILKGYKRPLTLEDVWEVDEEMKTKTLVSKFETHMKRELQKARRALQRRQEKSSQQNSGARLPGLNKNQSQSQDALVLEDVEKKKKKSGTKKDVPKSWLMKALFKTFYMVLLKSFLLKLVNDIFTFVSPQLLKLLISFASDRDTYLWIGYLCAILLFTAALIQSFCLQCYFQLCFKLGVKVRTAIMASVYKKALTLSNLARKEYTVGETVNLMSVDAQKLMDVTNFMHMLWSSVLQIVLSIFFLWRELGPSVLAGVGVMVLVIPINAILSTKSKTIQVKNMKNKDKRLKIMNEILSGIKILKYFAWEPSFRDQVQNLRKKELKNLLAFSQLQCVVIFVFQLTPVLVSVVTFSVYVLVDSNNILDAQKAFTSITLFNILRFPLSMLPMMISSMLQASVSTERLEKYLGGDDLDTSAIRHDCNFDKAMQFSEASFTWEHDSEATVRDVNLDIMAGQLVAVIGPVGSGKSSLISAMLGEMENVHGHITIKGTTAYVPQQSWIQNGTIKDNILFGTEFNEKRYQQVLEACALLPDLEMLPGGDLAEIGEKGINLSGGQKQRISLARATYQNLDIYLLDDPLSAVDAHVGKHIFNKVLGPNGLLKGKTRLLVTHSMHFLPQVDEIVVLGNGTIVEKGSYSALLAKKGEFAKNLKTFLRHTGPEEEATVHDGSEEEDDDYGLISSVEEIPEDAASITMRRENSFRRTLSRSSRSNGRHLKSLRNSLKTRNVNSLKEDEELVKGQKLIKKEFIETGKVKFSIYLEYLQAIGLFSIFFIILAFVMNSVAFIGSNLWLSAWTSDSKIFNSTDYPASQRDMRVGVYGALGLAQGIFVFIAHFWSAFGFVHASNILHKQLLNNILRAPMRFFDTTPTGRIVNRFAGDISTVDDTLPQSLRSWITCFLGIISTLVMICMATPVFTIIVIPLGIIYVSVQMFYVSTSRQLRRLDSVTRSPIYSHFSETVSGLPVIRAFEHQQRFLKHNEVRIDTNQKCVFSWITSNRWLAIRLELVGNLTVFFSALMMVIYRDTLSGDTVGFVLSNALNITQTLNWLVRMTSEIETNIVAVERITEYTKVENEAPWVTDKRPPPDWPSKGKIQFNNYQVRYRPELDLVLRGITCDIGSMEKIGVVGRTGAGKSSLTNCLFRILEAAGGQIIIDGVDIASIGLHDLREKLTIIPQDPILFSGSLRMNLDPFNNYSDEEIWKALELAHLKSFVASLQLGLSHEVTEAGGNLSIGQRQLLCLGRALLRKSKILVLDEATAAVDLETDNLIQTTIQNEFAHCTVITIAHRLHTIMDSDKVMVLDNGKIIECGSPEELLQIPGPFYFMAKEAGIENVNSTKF
observable: inhibition at 3 μM (%)

COc1cc(N2CCC3(CCN(C)CC3)CC2)ccc1Nc1ncc(Cl)c(Nc2ccccc2P(C)(C)=O)n1 [Iruplinalkib]; -4.2

Data origin: paper PMC10140010
